molecular target: RIP2K^1-300 (kinase domain of human RIP2, residues 1-300) (human, UniProt O43353 1-300); test: MST
Sequence (O43353 1-300): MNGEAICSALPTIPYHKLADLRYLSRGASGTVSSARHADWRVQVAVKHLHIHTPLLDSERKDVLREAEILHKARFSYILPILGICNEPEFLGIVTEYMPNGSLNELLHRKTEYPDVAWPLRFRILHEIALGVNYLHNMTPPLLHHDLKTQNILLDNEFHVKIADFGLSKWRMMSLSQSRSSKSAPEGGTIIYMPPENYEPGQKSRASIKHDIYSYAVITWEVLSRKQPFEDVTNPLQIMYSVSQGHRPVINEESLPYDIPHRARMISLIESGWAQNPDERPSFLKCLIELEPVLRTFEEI
observable: pKd
Would you please state pKd, meaning minus log10 of the concentration in mol/L, as a bare number?

Reported pKd, binder XIAP BIR2^154-240 (domain or fragment) YPRNPAMYSEEARLKSFQNWPDYAHLTPRELASAGLYYTGIGDQVQCFCCGGKLKNWEPCDRAWSEHRRHFPNCFFVLGRNLNIRSE : ____
7.07
